Data credit: patent US20260109776A1

Below is a list of entries, each paired with its recorded human B cell proliferation, no crosslinking, Max Fold Change value.
Tested system: human CD40 on cells (human, UniProt P25942 21-277)
Sequence (P25942 21-277 limits assumed): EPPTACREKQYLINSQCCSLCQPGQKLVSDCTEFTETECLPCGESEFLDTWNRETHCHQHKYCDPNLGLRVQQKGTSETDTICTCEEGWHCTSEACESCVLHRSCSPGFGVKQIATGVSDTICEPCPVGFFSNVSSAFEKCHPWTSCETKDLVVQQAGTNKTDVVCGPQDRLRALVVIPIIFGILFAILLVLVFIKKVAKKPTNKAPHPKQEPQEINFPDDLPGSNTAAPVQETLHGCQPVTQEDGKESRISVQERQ
Test description: cell-based or functional assay
Report as a plain number; the unit fold is understood.

| Binder | Reported value |
| --- | --- |
| 29H10 (antibody, V domains shown, also called 4877-1) VH: QVQLVQSGAEVTKPGASVKVSCKASGYTFAGYYMHWVRQAPGQGLEWMGWINPHSGGTNYAQKFQDRVTMTRDTSINTAYMELSRLRSDDTAVYYCARERISMVRGVGHNWFAPWGQGTLVTVSS VL: DIQMTQSPSSLSASVGDRVTITCRASQDISNNLAWFQQKPGKPPKSLMYAASSLHSGVPSTFSGSGSGTDFTFTISSLQPEDFATYYCQQYNSYPLTFGGGTKVEIRR | 1.35 |

Briefly, human B cell proliferation, no crosslinking, Max Fold Change measured for 36F3 (antibody, IgG4, V domains shown, also called 4891-1) VH: QVQLQQSGPGLVKPSQTLSLTCAISGDSVSSSRTAWNWIRQSPSRGLEWLGRTYYRSKWYHDYSVSVKSRITIDPDTSKNQFSLQLNSVTPEDTAVYYCARGAAPFDYWGQGTLVTVSS VL: EIVLTQSPGTLSLSPGERATLSCRASQSVSSNYLAWYQQKPGQAPRALIYAASNRAAGISDRFSGSGSGTDFTLTISRLEPEDFAVYFCQQYGSSPLTFGGGTKVEIKR : 1.83

Documented human B cell proliferation, no crosslinking, Max Fold Change of 39C2 (antibody, IgG4, V domains shown, also called 4887-1) VH: QVQLVQSGTEVKKPGASVKVSCKASGYTFPGYYMHWVRQAPGQGLEWMGWINPDSGGTKYTQKFQGRVTLTRDASVSTAYIDLNRLRSDDTAVYYCARERCRTTNCYLDYWGQGSLVTVSS VL: QSALTQPASVSGSPGQSITISCTGTSSDVGNYNLVSWYQQHPGKAPKLMIYEVNRRPSGVSNRFSGSKSGNTASLTISGLQAEDEAEYYCCSYAGRDTFVVFGGGTKLTVLG : 1.24
